System: ATP;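 further: ATP exposure 15 min at 22 °C before imaging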
test.protocol: switch fluorescence ratio, 500 uM ATP over buffer (Cy3 cluster intensity, sum of 5 cycles each) (fold (ratio)); higher = stronger signal-on switching upon ATP binding; sequences stand for … in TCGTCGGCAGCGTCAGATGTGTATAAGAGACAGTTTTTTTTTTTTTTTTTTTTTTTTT…TC
settings: aptamer strand: ATP DNA aptamer (quencher-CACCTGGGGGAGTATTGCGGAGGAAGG + anchor), 100 nM annealed; ATP concentration: 500 uM
measurement.name: switch fluorescence ratio

{"seq.text": "ACGATTGTCT", "switch fluorescence ratio": 0.973}
{"seq.text": "TTGGGTTAAG", "switch fluorescence ratio": 0.983}
{"seq.text": "CTCTTAGGAT", "switch fluorescence ratio": 1.02}

Looking up GATATTAAGC , I see its switch fluorescence ratio listed as 1.01

Looking up TTAAGAAG , I see its switch fluorescence ratio listed as 0.996

Looking up GGGAAGGTTA , I see its switch fluorescence ratio listed as 0.993

Looking up CCTGGGTCGA , I see its switch fluorescence ratio listed as 1.02

Looking up ATTGTACGCT , I see its switch fluorescence ratio listed as 1.02

Looking up AAAGATTTCG , I see its switch fluorescence ratio listed as 0.971

Looking up GAGAGGGCCT , I see its switch fluorescence ratio listed as 0.985

Looking up TGTTGTGGGA , I see its switch fluorescence ratio listed as 0.979

Looking up TTTTCTGTTT , I see its switch fluorescence ratio listed as 0.996
